# SYSTEM NAME: wild-type human cardiac sodium channel, hNav1.5 (Homo sapiens)
# Sequence (Q14524 whole entry): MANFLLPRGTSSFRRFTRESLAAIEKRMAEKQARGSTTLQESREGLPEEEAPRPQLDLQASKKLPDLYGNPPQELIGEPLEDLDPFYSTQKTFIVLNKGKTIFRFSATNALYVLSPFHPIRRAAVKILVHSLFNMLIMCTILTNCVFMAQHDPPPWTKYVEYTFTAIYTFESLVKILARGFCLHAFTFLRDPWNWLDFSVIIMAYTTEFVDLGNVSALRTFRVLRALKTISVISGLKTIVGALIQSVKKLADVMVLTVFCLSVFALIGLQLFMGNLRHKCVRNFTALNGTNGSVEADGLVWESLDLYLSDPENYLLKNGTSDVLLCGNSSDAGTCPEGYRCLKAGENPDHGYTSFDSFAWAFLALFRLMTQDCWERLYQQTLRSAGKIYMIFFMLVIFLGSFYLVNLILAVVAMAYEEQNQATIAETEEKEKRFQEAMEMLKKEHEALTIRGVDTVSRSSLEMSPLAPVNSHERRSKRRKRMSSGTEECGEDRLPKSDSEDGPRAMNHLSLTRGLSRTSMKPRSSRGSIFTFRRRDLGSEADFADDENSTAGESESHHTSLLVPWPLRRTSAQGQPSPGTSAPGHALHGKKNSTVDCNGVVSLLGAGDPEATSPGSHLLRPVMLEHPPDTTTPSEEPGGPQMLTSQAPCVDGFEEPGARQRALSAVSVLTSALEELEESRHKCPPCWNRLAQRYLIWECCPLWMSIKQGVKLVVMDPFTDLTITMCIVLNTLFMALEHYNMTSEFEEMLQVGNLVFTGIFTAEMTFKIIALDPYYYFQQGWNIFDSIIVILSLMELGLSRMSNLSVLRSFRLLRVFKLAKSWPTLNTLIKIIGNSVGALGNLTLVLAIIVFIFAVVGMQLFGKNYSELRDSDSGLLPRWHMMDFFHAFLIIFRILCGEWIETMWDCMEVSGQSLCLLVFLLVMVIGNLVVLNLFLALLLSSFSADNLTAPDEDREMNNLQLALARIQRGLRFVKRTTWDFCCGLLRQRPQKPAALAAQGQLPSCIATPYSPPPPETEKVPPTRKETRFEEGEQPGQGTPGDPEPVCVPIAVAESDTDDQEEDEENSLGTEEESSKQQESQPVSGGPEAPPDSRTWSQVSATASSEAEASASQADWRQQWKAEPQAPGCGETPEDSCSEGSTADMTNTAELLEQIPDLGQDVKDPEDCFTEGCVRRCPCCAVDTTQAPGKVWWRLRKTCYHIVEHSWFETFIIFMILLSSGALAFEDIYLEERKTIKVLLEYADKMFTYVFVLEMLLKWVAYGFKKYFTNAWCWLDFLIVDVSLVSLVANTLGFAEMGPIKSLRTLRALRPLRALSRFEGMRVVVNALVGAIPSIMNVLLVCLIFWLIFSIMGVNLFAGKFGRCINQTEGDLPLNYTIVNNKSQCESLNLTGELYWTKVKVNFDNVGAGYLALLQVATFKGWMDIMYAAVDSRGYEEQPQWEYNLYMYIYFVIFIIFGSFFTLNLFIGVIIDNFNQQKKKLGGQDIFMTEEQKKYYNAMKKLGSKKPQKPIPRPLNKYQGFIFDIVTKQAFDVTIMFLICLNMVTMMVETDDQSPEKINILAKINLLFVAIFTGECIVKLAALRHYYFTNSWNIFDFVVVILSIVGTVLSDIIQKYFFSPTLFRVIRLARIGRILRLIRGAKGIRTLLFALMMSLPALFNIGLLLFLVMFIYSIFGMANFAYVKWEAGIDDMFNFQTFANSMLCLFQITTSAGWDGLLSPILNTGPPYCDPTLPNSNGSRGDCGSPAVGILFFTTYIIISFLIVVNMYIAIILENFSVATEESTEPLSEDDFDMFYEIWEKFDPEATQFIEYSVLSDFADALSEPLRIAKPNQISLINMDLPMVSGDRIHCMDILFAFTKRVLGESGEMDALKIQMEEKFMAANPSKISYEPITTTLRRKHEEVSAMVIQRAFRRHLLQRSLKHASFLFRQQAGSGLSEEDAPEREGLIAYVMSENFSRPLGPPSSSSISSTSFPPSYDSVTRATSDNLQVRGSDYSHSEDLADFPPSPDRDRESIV
# PROTOCOL DESCRIPTION: Peak INa screening assay (tonic block and use-dependent block)
# Type: cell-based
# CONDITION CONTEXT: tonic block of Peak INa, 0.1 Hz, holding -100 mV, read-out: Peak TB 3 uM
REPORTED METRIC: inhibition at 3 µM (%)
Record the value in %, omitting the unit from your answer.

Please review the entries below; each comes with its answer.
Fc1cccnc1COc1noc2ccc(-c3ccc(OC(F)(F)F)cc3)cc12    17.1
COc1ccnc(COc2noc3ccc(-c4ccc(OC(F)(F)F)cc4)cc23)c1    23.5
FC(F)(F)Oc1ccc(-c2ccc3onc(OCCn4cncn4)c3c2)cc1    22.2
CN(C)c1noc2ccc(-c3ccc(OC(F)(F)F)cc3)cc12    38.8
FC(F)(F)Oc1ccc(-c2ccc3onc(-n4cnc(C(F)(F)F)c4)c3c2)cc1    93

Task item: Note inhibition at 3 µM for the compound shown: `Nc1noc2ccc(-c3ccc(OC(F)(F)F)cc3)cc12`
Reply: 26

Task item: Quick one: give measured inhibition at 3 µM for `Cc1cccnc1COc1noc2ccc(-c3ccc(OC(F)(F)F)cc3)cc12`
Reply: 14.9

* * *

# SYSTEM NAME: UniProt:Q14524
# PROTOCOL DESCRIPTION: Late INa screening assay (QPatch whole cell patch clamp, Tefluthrin-induced late current)
# Assay type: cell-based
# CONDITION CONTEXT: 0.3 uM; HEK293 hNav1.5; percent block of late INa
REPORTED METRIC: inhibition at 0.3 µM (%)
Answer in %, number only, no unit symbol.

FC(F)(F)Oc1ccc(-c2ccc3onc(OCCn4ccnc4)c3c2)cc1 [Example 55]    45.4
CCN(CC)C(=O)COc1noc2ccc(-c3ccc(OC(F)(F)F)cc3)cc12 [Example 150]    49.4
FC(F)(F)Oc1ccc(-c2ccc3onc(OCC4CCO4)c3c2)cc1 (centres unmarked) [Example 42]    17.5
FC(F)(F)Oc1ccc(-c2ccc3onc(OCc4nnc(C5CC5)o4)c3c2)cc1 [Example 96]    21.1
CC(=O)N1CC(COc2noc3ccc(-c4ccc(OC(F)(F)F)cc4)cc23)C1 [Example 110]    25.7

Task item: In one line, give reported inhibition at 0.3 µM of the entry FC(F)(F)Oc1ccc(-c2ccc3onc(OC[C@H]4COCCN4)c3c2)cc1 [Example 114] .
Reply: 22.5

Task item: Answer with reported inhibition at 0.3 µM of COc1cc(-c2ccc(OC(F)(F)F)cc2)cc2c(OCc3ncccn3)noc12 [Example 22]
Reply: 17.7

Task item: // fetch inhibition at 0.3 µM given entry Cc1cccc(CNc2noc3ccc(-c4ccc(OC(F)(F)F)cc4)cc23)n1 [Example 129]
Reply: 34.3

* * *

This section presents compounds with their documented inhibition at 3 µM values.
# SYSTEM NAME: wild-type human cardiac sodium channel, hNav1.5 (Homo sapiens)
# PROTOCOL DESCRIPTION: Peak INa screening assay (tonic block and use-dependent block)
# Format: cell-based
# CONDITION CONTEXT: use-dependent block of Peak INa, 3 Hz, pulse 50, read-out: Peak UDB 3 Hz 3 uM
Just the number in %, nothing appended.

FC(F)(F)Oc1ccc(-c2ccc3onc(OC[C@H]4COCCN4)c3c2)cc1    33.3
O=C1CC[C@H](COc2noc3ccc(-c4ccc(OC(F)(F)F)cc4)cc23)N1    6.6

Task item: Quick one: give measured inhibition at 3 µM for `COc1cc(OC(F)(F)F)ccc1-c1ccc2onc(OCc3ncccn3)c2c1`
Reply: 17.9

Task item: Consider the compound `CC(=O)N1CC(COc2noc3ccc(-c4ccc(OC(F)(F)F)cc4)cc23)C1` . State its measured inhibition at 3 µM.
Reply: 11.5

Task item: Given the compound `Cc1nccn1CCOc1noc2ccc(-c3ccc(OC(F)(F)F)cc3)cc12` , write its reported inhibition at 3 µM.
Reply: 37.1

Task item: Quickly give me recorded inhibition at 3 µM for `CC(=O)N1CCOC[C@H]1COc1noc2ccc(-c3ccc(OC(F)(F)F)cc3)cc12`
Reply: 18.3

Task item: Name the recorded inhibition at 3 µM of the item `FC(F)(F)Oc1cccc(-c2ccc3onc(OCc4ncccn4)c3c2)c1` in your answer.
Reply: 5.7

Task item: Name the recorded inhibition at 3 µM of the compound listed here: `CC(C)[C@H](N)COc1noc2ccc(-c3ccc(OC(F)(F)F)cc3)cc12`
Reply: 56.1

Task item: Output measured inhibition at 3 µM for this item: `C[C@H](COc1noc2ccc(-c3ccc(OC(F)(F)F)cc3)cc12)N1CCCC1=O`
Reply: 6.4

Task item: Supply recorded inhibition at 3 µM for `CC(C)(C)OC(=O)N1CCOC[C@H]1COc1noc2ccc(-c3ccc(OC(F)(F)F)cc3)cc12` here.
Reply: 7.3

Where do these numbers come from? They come from patent US9416115B2.
